# test_details: Protein binding in mouse plasma at 10 uM measured after 4 hrs by LC-MS/MS analysis
# Type: ADME, cell-free
# condition_details: read-out: PPB (converted)
metric: fraction unbound at 4 h, 10 µM

[1] CS(=O)(=O)c1ccc(Oc2cc(F)cc(C#N)c2)c2c1[C@H](O)C(F)(F)C2
[2] CS(=O)(=O)c1ccc(Oc2cc(F)cc(C#N)c2)c2c1[C@H](O)[C@H](F)[C@@H]2F
Would you kindly point out which of 1 and 2 has the smaller fraction unbound at 4 h, 10 µM figure? Let me know the label of the one you choose.
1

###

# test_details: Half life in patient with advanced solid tumor at 40 mg, po administered once daily measured on day 15
# Type: ADME, organism-based
# condition_details: human, in vivo
metric: half-life (h)
# unit: h | format: bare number

half-life for CS(=O)(=O)c1ccc(Oc2cc(F)cc(C#N)c2)c2c1[C@H](O)[C@H](F)[C@@H]2F ?
18.8

###

# test_details: Clearance in CD-1 mouse at 3 mg/kg, iv by UPLC-MS analysis
# Format: ADME, organism-based
# condition_details: in vivo
metric: clearance (mL/min/kg)
Use mL/min/kg as the unit, but write only the number.

Param item = CS(=O)(=O)c1ccc(Oc2cc(F)cc(C#N)c2)c2c1[C@H](O)[C@H](F)[C@@H]2F ; retrieve measured clearance.
21

###

# study_target: P-gp (ABCB1) (Homo sapiens)
# Sequence (P08183 whole entry): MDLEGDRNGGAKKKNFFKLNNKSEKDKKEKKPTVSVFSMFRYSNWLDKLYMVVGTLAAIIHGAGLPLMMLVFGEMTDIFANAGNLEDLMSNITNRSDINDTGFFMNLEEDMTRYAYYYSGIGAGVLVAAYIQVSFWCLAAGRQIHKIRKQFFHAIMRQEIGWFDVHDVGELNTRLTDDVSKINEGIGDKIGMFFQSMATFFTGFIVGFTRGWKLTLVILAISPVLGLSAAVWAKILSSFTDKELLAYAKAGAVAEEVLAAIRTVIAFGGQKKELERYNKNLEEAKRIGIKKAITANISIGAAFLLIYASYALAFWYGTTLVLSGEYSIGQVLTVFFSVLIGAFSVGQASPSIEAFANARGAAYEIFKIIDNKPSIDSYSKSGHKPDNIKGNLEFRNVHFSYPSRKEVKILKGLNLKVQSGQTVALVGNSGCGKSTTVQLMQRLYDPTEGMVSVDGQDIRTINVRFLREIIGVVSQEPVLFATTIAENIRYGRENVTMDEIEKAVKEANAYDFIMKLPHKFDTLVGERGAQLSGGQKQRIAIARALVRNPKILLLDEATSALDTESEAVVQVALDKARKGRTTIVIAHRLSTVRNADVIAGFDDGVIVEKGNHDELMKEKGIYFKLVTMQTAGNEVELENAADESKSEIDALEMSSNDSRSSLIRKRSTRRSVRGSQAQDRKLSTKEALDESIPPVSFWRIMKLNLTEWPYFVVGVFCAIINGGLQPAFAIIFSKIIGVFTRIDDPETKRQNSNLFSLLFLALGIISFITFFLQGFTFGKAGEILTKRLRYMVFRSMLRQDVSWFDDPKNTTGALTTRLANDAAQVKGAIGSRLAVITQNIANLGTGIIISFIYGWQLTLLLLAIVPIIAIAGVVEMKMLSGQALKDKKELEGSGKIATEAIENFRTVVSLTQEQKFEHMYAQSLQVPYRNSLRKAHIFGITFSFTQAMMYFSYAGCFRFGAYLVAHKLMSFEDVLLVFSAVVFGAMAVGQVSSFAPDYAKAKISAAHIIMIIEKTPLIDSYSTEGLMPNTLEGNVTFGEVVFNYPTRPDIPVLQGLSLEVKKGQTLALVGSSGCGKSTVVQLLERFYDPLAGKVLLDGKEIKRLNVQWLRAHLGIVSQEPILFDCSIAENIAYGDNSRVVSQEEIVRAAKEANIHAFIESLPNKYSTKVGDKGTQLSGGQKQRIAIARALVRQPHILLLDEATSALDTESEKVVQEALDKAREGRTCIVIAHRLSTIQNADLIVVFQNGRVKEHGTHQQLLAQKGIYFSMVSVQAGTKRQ
# test_details: Substrate activity at P-gp (unknown origin) expressed in MDCK2 cells assessed as efflux ratio of permeability at up to 300 uM
# Assay type: ADME, cell-based
# condition_details: MDCK-MDR1
metric: efflux ratio

Recall the recorded efflux ratio for CS(=O)(=O)c1ccc(Oc2cc(F)cc(C#N)c2)c2c1[C@H](O[C@@H]1O[C@H](C(=O)O)[C@@H](O)[C@H](O)[C@H]1O)C(F)(F)C2 with P-gp (ABCB1) (Homo sapiens) and state it.
< 2

###

# test_details: AUClast in patient with advanced solid tumor at 160 mg, po administered once daily measured on day 15
# Type: ADME, organism-based
# Set-up: dose 160 mg, time 0 - last, route oral
# condition_details: human, in vivo
metric: AUC(0-t) (ng·h/mL)
Please reply with the bare figure in ng·h/mL and do not write the unit itself.

Given the compound CS(=O)(=O)c1ccc(Oc2cc(F)cc(C#N)c2)c2c1[C@H](O)[C@H](F)[C@@H]2F [BELZUTIFAN] , what is its reported AUC(0-t)?
21000

###

# test_details: AUClast in patient with advanced solid tumor at 20 mg, po administered once daily measured on day 15
# Format: ADME, organism-based
# Design: dose 20 mg, route oral, time 0 - last
# condition_details: human, in vivo
metric: AUC(0-t) (ng·h/mL)
// return numeric value only (unit: ng·h/mL, not printed)

Given the entry CS(=O)(=O)c1ccc(Oc2cc(F)cc(C#N)c2)c2c1[C@H](O)[C@H](F)[C@@H]2F , report its measured AUC(0-t).
2100

###

# test_details: AUClast in patient with advanced solid tumor at 240 mg, po administered once daily measured on day 15
# Type: ADME, organism-based
# Parameters: dose 240 mg, time 0 - last, route oral
# condition_details: human, in vivo
metric: AUC(0-t) (ng·h/mL)
Lab book: enter the figure in ng·h/mL, no units written.

Which AUC(0-t) is reported for this compound? CS(=O)(=O)c1ccc(Oc2cc(F)cc(C#N)c2)c2c1[C@H](O)[C@H](F)[C@@H]2F [BELZUTIFAN]
28000

###

# test_details: Cmax in patient with advanced solid tumor at 160 mg, po administered once daily measured on day 15
# Format: ADME, organism-based
# Parameters: dose 160 mg, route oral
# condition_details: human, in vivo
metric: Cmax (ng/mL)
Kindly provide the numeric value in ng/mL only, without the unit symbol.

GET /values?readout=Cmax&item= CS(=O)(=O)c1ccc(Oc2cc(F)cc(C#N)c2)c2c1[C@H](O)[C@H](F)[C@@H]2F
2000

###

# test_details: Cmax in patient with advanced solid tumor at 80 mg, po administered once daily measured on day 15
# Format: ADME, organism-based
# Parameters: dose 80 mg, route oral
# condition_details: human, in vivo
metric: Cmax (ng/mL)
Numeric only. Scale: ng/mL

Using the record for CS(=O)(=O)c1ccc(Oc2cc(F)cc(C#N)c2)c2c1[C@H](O)[C@H](F)[C@@H]2F , report its Cmax.
1400

###

# test_details: Protein binding in human plasma at 10 uM measured after 4 hrs by LC-MS/MS analysis
# Type: ADME, cell-free
# condition_details: read-out: PPB (converted)
metric: fraction unbound at 4 h, 10 µM

[P] CS(=O)(=O)c1ccc(Oc2cc(F)cc(C#N)c2)c2c1[C@H](O)C(F)(F)C2
[Q] CS(=O)(=O)c1ccc(Oc2cc(F)cc(C#N)c2)c2c1[C@H](O)[C@H](F)[C@@H]2F
Which numeric fraction unbound at 4 h, 10 µM is bigger, that of P or that of Q ? Pick one and reply with its label.
Q
(Q: 0.48, P: 0.18)

###

# test_details: AUClast in patient with advanced solid tumor at 80 mg, po administered once daily measured on day 15
# Type: ADME, organism-based
# Design: dose 80 mg, route oral, time 0 - last
# condition_details: human, in vivo
metric: AUC(0-t) (ng·h/mL)
Dear colleague, please return just the value in ng·h/mL, with no unit written.

# query: AUC(0-t) of entry CS(=O)(=O)c1ccc(Oc2cc(F)cc(C#N)c2)c2c1[C@H](O)[C@H](F)[C@@H]2F
17500

###

# test_details: Volume of distribution at steady state in monkey at 1 mg/kg, iv by UPLC-MS analysis
# Type: ADME, organism-based, Macaca mulatta
# condition_details: rhesus monkey, in vivo, read-out: Vdss
metric: Vd (L/kg)
Value expressed in L/kg; do not type the unit.

Please look up its Vd: CS(=O)(=O)c1ccc(Oc2cc(F)cc(C#N)c2)c2c1[C@H](O)[C@H](F)[C@@H]2F [BELZUTIFAN]
2.9

###

# test_details: Cmax in patient with advanced solid tumor at 40 mg, po administered once daily measured on day 15
# Format: ADME, organism-based
# Set-up: dose 40 mg, route oral
# condition_details: human, in vivo
metric: Cmax (ng/mL)
Give the number; ng/mL is assumed, so skip it.

Need Cmax of CS(=O)(=O)c1ccc(Oc2cc(F)cc(C#N)c2)c2c1[C@H](O)[C@H](F)[C@@H]2F , thanks.
500

###

# test_details: Drug level in plasma of SCID Beige mouse xenografted with human 786-O cells at 1 mg/kg, po administered twice daily via gavage for 3 days measured 12 hrs post-last dose
# Type: ADME, organism-based
metric: concentration at 12 h (µg/mL)
Express your answer in µg/mL, writing the number without its unit.

I would be grateful if you could share the reported concentration at 12 h for CS(=O)(=O)c1ccc(Oc2cc(F)cc(C#N)c2)c2c1[C@H](O)[C@H](F)[C@@H]2F [BELZUTIFAN] .
0.027

###

# study_target: UDP-glucuronosyltransferase 2B17 (Homo sapiens)
# Sequence (O75795 whole entry): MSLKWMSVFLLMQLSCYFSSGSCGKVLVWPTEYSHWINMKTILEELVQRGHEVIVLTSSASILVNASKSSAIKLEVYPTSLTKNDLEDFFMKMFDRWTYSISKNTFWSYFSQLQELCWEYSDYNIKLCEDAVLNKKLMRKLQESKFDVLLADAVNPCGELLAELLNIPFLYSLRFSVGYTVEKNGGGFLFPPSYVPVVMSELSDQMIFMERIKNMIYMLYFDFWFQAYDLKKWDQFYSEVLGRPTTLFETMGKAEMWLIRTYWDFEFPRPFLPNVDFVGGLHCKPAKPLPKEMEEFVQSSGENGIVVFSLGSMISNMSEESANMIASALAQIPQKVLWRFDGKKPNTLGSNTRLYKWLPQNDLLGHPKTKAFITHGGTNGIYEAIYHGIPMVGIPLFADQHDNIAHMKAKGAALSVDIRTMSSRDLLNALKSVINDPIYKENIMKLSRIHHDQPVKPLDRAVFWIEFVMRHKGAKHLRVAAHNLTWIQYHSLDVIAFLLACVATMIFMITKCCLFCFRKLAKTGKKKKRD
# test_details: Substrate activity at recombinant human UGT2B17 expressed in baculovirus infected insect cell membranes assessed as enzyme-mediated glucuronidation by measuring Vmax per mg protein at 50 uM preincubated for 5 mins followed by UDPGA addition and measured after 60 mins by LC-MS/MS analysis
# Format: ADME
# condition_details: 1 h
metric: Vmax (pmol/min)

compound | study_target | Vmax / pmol/min
CS(=O)(=O)c1ccc(Oc2cc(F)cc(C#N)c2)c2c1[C@H](O)[C@H](F)C2 | UDP-glucuronosyltransferase 2B17 (Homo sapiens) | 14
CS(=O)(=O)c1ccc(Oc2cc(F)cc(C#N)c2)c2c1[C@H](O)C(F)(F)[C@@H]2F | UDP-glucuronosyltransferase 2B17 (Homo sapiens) | 440
CS(=O)(=O)c1ccc(Oc2cc(F)cc(C#N)c2)c2c1[C@H](O)C[C@@H]2F | UDP-glucuronosyltransferase 2B17 (Homo sapiens) | 1.4

[a] CS(=O)(=O)c1ccc(Oc2cc(F)cc(C#N)c2)c2c1[C@H](O)CC2
[b] CS(=O)(=O)c1ccc(Oc2cc(F)cc(C#N)c2)c2c1[C@H](O)C(F)(F)C2
In the pair a and b , the larger recorded Vmax belongs to which? Refer to your chosen item by its label in the answer.
b
(b: 280 pmol/min, a: 3.8 pmol/min)

[P] CS(=O)(=O)c1ccc(Oc2cc(F)cc(C#N)c2)c2c1[C@H](O)[C@H](F)[C@@H]2F [BELZUTIFAN]
[Q] CS(=O)(=O)c1ccc(Oc2cc(F)cc(C#N)c2)c2c1[C@H](O)[C@@H](F)C2
For this pair, P and Q , which shows a numerically higher Vmax? Reply briefly: the label of your chosen item.
Q
(Q: 50 pmol/min, P: 4.7 pmol/min)

###

# test_details: Cmax in patient with advanced solid tumor at 120 mg, po administered once daily measured on day 15
# Assay type: ADME, organism-based
# Set-up: dose 120 mg, route oral
# condition_details: human, in vivo
metric: Cmax (ng/mL)
Give just the numeric value; ng/mL need not be written.

Form field: reported Cmax of CS(=O)(=O)c1ccc(Oc2cc(F)cc(C#N)c2)c2c1[C@H](O)[C@H](F)[C@@H]2F
1800
